- Tested on: 5-HT (serotonin) uptake
- experimentSummary: 5-HT (serotonin) uptake inhibition, synaptosomal preparation (cortex)
- Assay type: biochemical, rat (Male Sprague-Dawley)
- experimentalContext: 5-hydroxytryptamine; rat cortex synaptosomes; 0.1 μM tritiated amine; 37° C., 4 minutes
- Protocol: For the purpose of identifying compounds as biogenic amine uptake inhibitors capable of interacting with the uptake carrier, ligand-carrier binding assays were carried out as an initial sceen. Male Sprague-Dawley derived rats, weighing about 180-250 g each (purchased from Sasco Animal Laboratories, Oregon, Wis.) were sacrificed by decapitation. […]
Where a name gives a salt, the structure may show the parent alone.
Kindly supply the reported log10(IC50) values for the records listed here.
Record value = log10 of IC50 given in nM.

For the molecule shown here, CN1CC2c3ccccc3CCC2C1Cc1ccc(F)cc1 (stereo not drawn) , give the reported log10(IC50).
3.46

Consider next the molecule COc1cccc2c1CCC1C2CN(C)C1Cc1ccccc1 (stereo not drawn) in the same way.
3.54

What about CN1CC2c3ccccc3CCC2C1Cc1cccc(F)c1 (stereo not drawn) [Example 16, hydrochloride] ?
3.74

Repeat with CCN1CC2c3ccc(OC)cc3CCC2C1Cc1ccccc1 (stereo not drawn) [Example 3, methanesulfonate salt]
3.15

Continue with COc1ccc2c(c1OC)CCC1C2CN(C)C1Cc1ccccc1 (stereo not drawn) [Example 32, hydrochloride]
4.10

Let us now turn to CCN1CC2c3ccccc3CCC2C1Cc1cccc(C)c1 (stereo not drawn) [Example 13, hydrochloride]
2.71

Next molecule: COc1ccc2c(c1)CCC1CC(Cc3ccccc3)N(C)CC21 (stereo not drawn) [Example 72, hydrochloride]
3.76

And then CC1C[C@H]2c3ccccc3CC[C@H]2CN1Cc1ccccc1 (relative stereo) [Example 71B] , what is it?
3.31

Check Cc1cccc(CC2C3CCc4ccccc4C3CN2C)c1 (stereo not drawn) [Example 12, hydrochloride] too.
3.25
